TEST_TARGET: CCKA (Cavia porcellus)
Construct: The pancreatata were homogenised in 40 ml ice-cold HEPES buffer using a polytron; from tissue; host or cells: pancreas membranes of male Dunkin Hartley guinea-pigs
Sequence (Q63931 1-430): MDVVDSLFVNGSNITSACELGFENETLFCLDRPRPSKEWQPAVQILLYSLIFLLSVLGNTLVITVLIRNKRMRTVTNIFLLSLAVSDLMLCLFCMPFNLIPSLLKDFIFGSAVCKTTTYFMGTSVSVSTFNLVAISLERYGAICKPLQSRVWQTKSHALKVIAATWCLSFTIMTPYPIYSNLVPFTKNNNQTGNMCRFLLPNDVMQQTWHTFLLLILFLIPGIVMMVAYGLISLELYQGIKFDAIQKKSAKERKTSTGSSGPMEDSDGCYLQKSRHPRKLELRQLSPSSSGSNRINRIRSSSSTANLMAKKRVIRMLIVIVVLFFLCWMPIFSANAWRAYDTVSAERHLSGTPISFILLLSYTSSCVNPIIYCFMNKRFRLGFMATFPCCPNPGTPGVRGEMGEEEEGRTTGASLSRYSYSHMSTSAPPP
METHOD_SUMMARY: CCKA radioligand binding assay in guinea-pig pancreas membranes ([125I]-CCK8(S))
TEST_CONTEXT: PD134,308 present, 150 minutes at 21±3°
# CCKA pKi per record follows
Reply: number alone, nothing else.

// worked examples, CCKA pKi included
1. O=C(NCC12CC3CC(CC(C3)C1)C2)c1cc2[nH]ccc2cc1C(=O)N[C@@H](Cc1ccccc1)C(=O)Nc1cc(NC(=O)C(F)(F)F)cc(NC(=O)C(F)(F)F)c1    5.0
2. O=C(O)c1cc(NC(=O)[C@H](Cc2ccccc2)NC(=O)c2cc3ccsc3cc2C(=O)NCC23CC4CC(CC(C4)C2)C3)cc(C(=O)O)c1    5.7
3. CC(=O)Oc1cc(OC(C)=O)c2cc(C(=O)NCC34CC5CC(CC(C5)C3)C4)c(C(=O)N[C@@H](Cc3ccccc3)C(=O)Nc3cc(C(=O)O)cc(C(=O)O)c3)cc2c1    5.9
4. CC(=O)Oc1cc(OC(C)=O)c2cc(C(=O)N[C@@H](Cc3ccccc3)C(=O)Nc3cc(C(=O)O)cc(C(=O)O)c3)c(C(=O)NCC34CC5CC(CC(C5)C3)C4)cc2c1    6.1
5. CC(=O)n1ccc2cc(C(=O)N[C@@H](Cc3ccccc3)C(=O)Nc3cc(C(=O)O)cc(C(=O)O)c3)c(C(=O)NCC34CC5CC(CC(C5)C3)C4)cc21    5.6

Kindly consider the entry below.
Sample O=C(O)c1cc(NC(=O)[C@H](Cc2ccccc2)NC(=O)c2cc3ccccc3cc2C(=O)NCC23CC4CC(CC(C4)C2)C3)cc(C(=O)O)c1 ; CCKA pKi observed: 6.1
